target-or-system: UniProt Q72KB9
Sequence (Q72KB9 entry or part of it): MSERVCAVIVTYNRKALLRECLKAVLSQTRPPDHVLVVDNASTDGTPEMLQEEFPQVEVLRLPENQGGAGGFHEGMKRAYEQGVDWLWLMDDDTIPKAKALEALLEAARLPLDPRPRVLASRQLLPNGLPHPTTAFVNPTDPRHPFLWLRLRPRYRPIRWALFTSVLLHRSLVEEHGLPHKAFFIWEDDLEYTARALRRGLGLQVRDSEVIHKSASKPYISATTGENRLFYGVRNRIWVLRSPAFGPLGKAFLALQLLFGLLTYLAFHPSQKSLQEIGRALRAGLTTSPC
experimental-protocol: Isothermal titration calorimetry (ITC) binding measurements with RfbF
assay-conditions: ITC, 25 °C, ligand titrated into 110 µM RfbF
endpoint-label: ΔG

- CC1OC(OP(=O)(O)OP(=O)(O)OCC2OC(n3ccc(=O)[nH]c3=O)C(O)C2O)C(O)C(O)C1O (stereo not drawn): 8.55 (3.65) kcal/mol
- CC(=O)NC1C(OP(=O)(O)OP(=O)(O)OCC2OC(n3ccc(=O)[nH]c3=O)C(O)C2O)OC(CO)C(O)C1O [UDP-α-D-GlcNAc, UDP-a-N-acetyl-D-glucosamine, reference compound]: N/B
- CC1OC(OP(=O)(O)OP(=O)(O)OCC2OC(n3cnc4c(=O)[nH]c(N)nc43)C(O)C2O)C(O)C(O)C1O (stereo not drawn): N/B
